target_entity: human DLL4 overexpressed on cells (human, UniProt Q9NR61 27-685)
assay_summary: cell-based or functional assay
Provide the recorded IC50, DLL4/Notch1 reporter assay for the entries that follow.
Kindly answer with a numeric value in nM, unit omitted.

### Prompt Which IC50, DLL4/Notch1 reporter assay reading was recorded for the binder DLLBII104G01 (VHH, also called 104G1) VHH: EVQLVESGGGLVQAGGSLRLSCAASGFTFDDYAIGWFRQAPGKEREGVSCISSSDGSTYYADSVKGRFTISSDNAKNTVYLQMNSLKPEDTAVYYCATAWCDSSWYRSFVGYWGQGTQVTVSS ?
### Response 964

### Prompt Moving on to DLLBII96C03 (VHH, also called 96C3) VHH: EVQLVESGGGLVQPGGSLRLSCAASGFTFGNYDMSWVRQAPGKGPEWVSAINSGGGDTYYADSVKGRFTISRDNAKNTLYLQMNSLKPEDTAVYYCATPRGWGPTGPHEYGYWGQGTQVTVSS
### Response 5160

### Prompt Moving on to DLLBII115A05 (VHH, also called 115A5; DLLBII115A5) VHH: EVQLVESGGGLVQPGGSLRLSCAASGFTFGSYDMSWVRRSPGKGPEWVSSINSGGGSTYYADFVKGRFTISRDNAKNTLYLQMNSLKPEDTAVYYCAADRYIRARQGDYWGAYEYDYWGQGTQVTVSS
### Response 1740

### Prompt Moving on to DLLBII56A09 (VHH, also called 56A9; DLLBII56A9) VHH: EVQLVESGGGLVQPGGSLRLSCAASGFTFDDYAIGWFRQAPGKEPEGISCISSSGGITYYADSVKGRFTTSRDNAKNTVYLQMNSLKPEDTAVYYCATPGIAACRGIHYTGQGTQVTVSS
### Response 540

### Prompt Moving on to DLLBII101G08 (VHH, also called 101G8; DLLBII101G8) VHH: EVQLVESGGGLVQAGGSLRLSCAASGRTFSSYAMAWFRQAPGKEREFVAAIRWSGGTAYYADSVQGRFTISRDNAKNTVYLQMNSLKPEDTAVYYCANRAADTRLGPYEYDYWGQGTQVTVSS
### Response 2760

### Prompt Moving on to DLLBII62C11 (VHH) VHH: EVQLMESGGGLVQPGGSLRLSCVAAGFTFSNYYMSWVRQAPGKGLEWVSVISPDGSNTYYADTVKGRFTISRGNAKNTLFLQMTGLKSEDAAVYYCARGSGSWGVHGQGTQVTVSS
### Response 4660
